I'd be grateful if you could share measured pIC50 for these entries.
Biological target: human recombinant CyPA (Homo sapiens)
Sequence (P62937 whole entry): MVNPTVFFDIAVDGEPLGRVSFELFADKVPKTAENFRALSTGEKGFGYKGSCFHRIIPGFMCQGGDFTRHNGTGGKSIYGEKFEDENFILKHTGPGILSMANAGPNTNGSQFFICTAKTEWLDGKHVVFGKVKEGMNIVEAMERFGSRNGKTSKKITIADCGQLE
Test: Semiautomated microtiter plate assay of rotamase activity inhibition
Assay type: biochemical
Conditions: 30 minute preincubation at 4° C., read-out: IC50 (rotamase inhibition, modified plate reader assay)
# reply with the number alone; pIC50 is -log10 of concentration in mol/L

**Query** Entry O=C(CCCCc1cccs1)Nc1cccc(C(=O)NNC(=S)Nc2ccc(Cl)c(Cl)c2)c1 has what pIC50?
**Result** 6.17

**Query** Entry O=C(CCCCCc1cccc(C(F)(F)F)c1)Nc1cccc(C(=O)NNC(=S)Nc2ccc(Cl)c(Cl)c2)c1 has what pIC50?
**Result** 6.81

**Query** Entry S=C(Nc1ccc(I)cc1)NC1CCCCC1NC(=S)Nc1ccc(I)cc1 (stereo not shown) has what pIC50?
**Result** 5.69

**Query** Entry O=C(CCCCc1ccccc1)Nc1cccc(S(=O)(=O)NC(=O)Nc2ccc(Cl)c(Cl)c2)c1 [Compound 34B] has what pIC50?
**Result** 4.72
